# PROTOCOL_TEXT: HepG2 cytotoxicity
# Format: cell-based
# CONDITION_LABEL: human, HepG2 cells; n = 2
# Protocol: HepG2 cells (LGC Promochem, ref HB-8065) in EMEM medium supplemented with fetal bovine serum (10%), Ampicillin (100 mg/L), and Streptomycin (100 mg/L) were plated on cell culture plates (Costar 3596, 2 × 10^4 cells/well) and incubated overnight at 37 °C in 5% CO2. […] Cell viability was determined by the Celltiter Aqueous One Cell Proliferation Assay (G3581–80, Promega) according to the manufacturer’s recommendations, using a Multiskan absorption reader (490 nm).
RESULT_TYPE: CC50

Q: Look up CC50 for this compound: O=CN(O)C[C@H](O)[C@H](O)[C@H](O)COP(=O)(O)O
A: > 1 mM

* * *

# Test system: E. coli C7 (018:K1:H7) LPS biosynthesis
# PROTOCOL_TEXT: Inhibition of bacterial LPS biosynthesis (silver-stained LPS SDS-PAGE)
# Format: cell-based
# CONDITION_LABEL: Escherichia coli
RESULT_TYPE: pEC50
pEC50 is defined as minus the log10 of a concentration measured in mol/L.

O=CN(O)C[C@H](O)[C@H](O)[C@H](O)/C=C/P(=O)(O)O
2.89
O=CN(O)C[C@H](O)[C@H](O)[C@H](O)CC(F)(F)P(=O)(O)O
3.29
O=CN(O)C[C@H](O)[C@H](O)[C@H](O)C(O)CP(=O)(O)O (some centres unmarked)
3.23
O=CN(O)C[C@H](O)[C@H](O)[C@H](O)CC(F)P(=O)([O-])O.[Na+] (some centres unmarked)
4.12

Q: Look up pEC50 for this molecule: O=CN(O)C[C@H](O)[C@H](O)[C@H](O)CCP(=O)([O-])O.[Na+]
A: 4.66

Q: Ok, now O=CN(O)C[C@H](O)[C@H](O)[C@H](O)CC(O)P(=O)(O)O (some centres unmarked)
A: 3.12

* * *

# System: K. pneumoniae S3 LPS heptosylation
# PROTOCOL_TEXT: LPS heptosylation inhibition in clinical isolate K. pneumoniae S3
# Assay type: cell-based
# CONDITION_LABEL: Klebsiella pneumoniae, read-out: EC50 of LPS heptosylation
RESULT_TYPE: EC50 (µM)
Dear colleague, please return just the value in µM, with no unit written.

Q: Look up EC50 for this compound: O=CN(O)C[C@H](O)[C@H](O)[C@H](O)COP(=O)(O)O
A: 21

* * *

# TARGET_DESC: E. coli GmhA (Escherichia coli)
# Sequence (P63224 whole entry): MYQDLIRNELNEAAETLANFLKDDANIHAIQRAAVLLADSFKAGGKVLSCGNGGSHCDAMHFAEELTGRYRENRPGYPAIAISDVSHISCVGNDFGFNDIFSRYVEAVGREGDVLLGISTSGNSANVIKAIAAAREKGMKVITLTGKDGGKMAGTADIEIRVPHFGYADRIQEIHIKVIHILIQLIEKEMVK
Catalogue of IC50 readings, one per entry.
Dear colleague, please return just the value in µM, with no unit written.

Q: Look up IC50 for this compound: O=CN(O)C[C@H](O)[C@H](O)[C@H](O)CP(=O)(O)O
A: 2.2

Q: Ok, now O=CN(O)C[C@@H](O)[C@H](O)[C@H](O)CCP(=O)(O)O
A: 9.2

Q: Ok, now O=CN(O)C[C@H](O)[C@H](O)[C@H](O)/C=C/P(=O)(O)O
A: 0.15

* * *

# System: E. cloacae S2 LPS heptosylation
# PROTOCOL_TEXT: LPS heptosylation inhibition in clinical isolate E. cloacae S2
# Format: cell-based
# CONDITION_LABEL: Enterobacter cloacae; E. cloacae S2, AmpC; 100 μM glucose-6-phosphate; n = 1
RESULT_TYPE: pEC50
pEC50 is defined as minus the log10 of a concentration measured in mol/L.

Q: Look up pEC50 for this molecule: O=CN(O)C[C@H](O)[C@H](O)[C@H](O)COP(=O)(O)O [Compound 17]
A: 4.74
